Values from ChEMBL document CHEMBL3112582

# experiment: Clearance in CD-1 mouse at 1.3 mg/kg, iv
# Assay type: ADME, organism-based
# Parameters: dose 1.3 mg/kg, route intravenous
# measurement-conditions: in vivo
value-kind: clearance (mL/min/kg)
One number for each entry, in mL/min/kg.

Kindly note the recorded clearance for COc1ncc(-c2cc3c(C)nc(N)cc3n([C@H]3CC[C@H](OCCO)CC3)c2=O)cc1NS(=O)(=O)c1ccc(F)cc1F , which is 2.87

* * *

Provide the reported pIC50 of each item.
# study-target: Phosphatidylinositol 4,5-bisphosphate 3-kinase catalytic subunit alpha isoform (Homo sapiens, UniProt P42336)
# Sequence (P42336 whole entry, canonical isoform): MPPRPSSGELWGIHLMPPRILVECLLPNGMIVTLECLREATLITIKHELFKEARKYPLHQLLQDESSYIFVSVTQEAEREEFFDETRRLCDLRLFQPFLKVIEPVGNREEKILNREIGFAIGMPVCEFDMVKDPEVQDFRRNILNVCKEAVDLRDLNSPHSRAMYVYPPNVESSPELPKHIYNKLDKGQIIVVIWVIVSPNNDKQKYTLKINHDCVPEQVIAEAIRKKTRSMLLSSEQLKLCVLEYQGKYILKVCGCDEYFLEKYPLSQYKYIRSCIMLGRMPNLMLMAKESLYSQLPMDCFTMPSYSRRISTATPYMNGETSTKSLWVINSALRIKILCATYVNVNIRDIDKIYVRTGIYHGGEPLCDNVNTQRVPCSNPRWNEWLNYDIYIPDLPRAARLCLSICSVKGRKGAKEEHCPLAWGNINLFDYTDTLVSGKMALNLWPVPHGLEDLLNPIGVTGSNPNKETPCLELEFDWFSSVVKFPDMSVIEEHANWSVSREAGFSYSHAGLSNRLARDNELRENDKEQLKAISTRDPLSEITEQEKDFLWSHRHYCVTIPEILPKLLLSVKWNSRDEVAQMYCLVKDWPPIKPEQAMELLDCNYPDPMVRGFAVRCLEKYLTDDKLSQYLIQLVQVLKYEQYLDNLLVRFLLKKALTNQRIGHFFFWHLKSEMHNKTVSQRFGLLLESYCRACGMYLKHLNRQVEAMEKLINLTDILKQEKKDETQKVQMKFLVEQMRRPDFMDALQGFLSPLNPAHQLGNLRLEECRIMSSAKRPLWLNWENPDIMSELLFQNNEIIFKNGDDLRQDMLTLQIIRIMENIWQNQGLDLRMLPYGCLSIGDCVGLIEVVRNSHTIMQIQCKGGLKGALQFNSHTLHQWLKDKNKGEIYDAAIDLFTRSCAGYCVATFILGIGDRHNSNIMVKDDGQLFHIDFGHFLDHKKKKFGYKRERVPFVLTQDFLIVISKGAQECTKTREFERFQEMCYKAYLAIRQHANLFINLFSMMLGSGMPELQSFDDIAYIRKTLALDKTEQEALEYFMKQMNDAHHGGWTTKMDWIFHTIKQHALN
# experiment: Inhibition of PI3Kalpha (unknown origin) using PIP2/PS as substrate compound preincubated for 15 mins by luciferase-based luminescence assay
Answers are plain numbers, as −log10 of the molar value.

As a guide, the following entries are already answered.
{"columns": ["smiles-str", "pIC50"],
 "data": [
  ["Cc1nc(N)cc2c1cc(-c1cnc3[nH]cnc3c1)c(=O)n2C1CCCC1", 8.54],
  ["COc1ncc(-c2cc3c(C)nc(N)cc3n([C@H]3CC[C@H](OCCO)CC3)c2=O)cc1NS(=O)(=O)c1ccc(F)cc1F", 8.62],
  ["COc1ncc(-c2cc3c(C)nc(N)cc3n(C3CCCC3)c2=O)cc1F", 8.23],
  ["COc1ncc(-c2cc3c(C)nc(N)cc3n(C3CCCC3)c2=O)cc1NS(=O)(=O)c1ccccc1", 6.93],
  ["Cc1nc(N)cc2c1cc(-c1cnc3[nH]ccc3c1)c(=O)n2C1CCCC1", 8.61]
]}

Hi there! I need pIC50 for each item below, if you can.
1. COc1ccc(-c2cc3c(C)nc(N)cc3n([C@H]3CC[C@H](OCCO)CC3)c2=O)cn1
2. COc1ncc(-c2cc3c(C)nc(N)cc3n(C3CC3)c2=O)cc1NS(=O)(=O)c1ccc(F)cc1F
3. COc1ncc(-c2cc3c(C)nc(N)cc3n(C3CCCC3)c2=O)cc1NS(=O)(=O)C1CC1
4. COc1ncc(-c2cc3c(C)nc(N)cc3n(C(C)C)c2=O)cc1NS(=O)(=O)c1ccc(F)cc1F

[reply]
7.45
7.40
7.16
7.37
